molecular target: Savinase® 16.0L (Lederbergia lenta); construct: purchased Sigma-Aldrich; assay: Protease storage stability in liquid formulations at 37° C. (Suc-AAPF-pNA assay); type: biochemical; settings: base formulation III, 2.0 wt% compound, 0.7 wt% Savinase 16.0 L; 35 d
Sequence (P29600 whole entry): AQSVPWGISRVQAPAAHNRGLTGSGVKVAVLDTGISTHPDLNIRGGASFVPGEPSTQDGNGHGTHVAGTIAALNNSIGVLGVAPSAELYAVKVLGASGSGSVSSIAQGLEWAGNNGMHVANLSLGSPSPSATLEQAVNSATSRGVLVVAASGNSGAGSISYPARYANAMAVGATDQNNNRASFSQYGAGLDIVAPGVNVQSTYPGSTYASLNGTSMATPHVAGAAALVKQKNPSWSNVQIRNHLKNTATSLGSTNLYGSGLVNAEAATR
Note to self: use t only for protease activity in the course of time of storage at 37° C. readings below 80%; a reading exactly at 80% still gets f.

{"columns": ["compound", "label.value"],
 "data": [
  ["CCCOC(=O)CC(O)(CC(=O)OCCC)C(=O)OCCC [A.2, Tripropylcitrate]", "f"],
  ["O=C(O)CC(O)(CC(=O)O)C(=O)O [B.1, citric acid, reference compound]", "t"],
  ["CCOC(=O)CC(O)(CC(=O)O)C(=O)O (stereo not drawn) [A.6, Monoethylcitrate]", "t"],
  ["CCOC(=O)CC(CC(=O)OCC)(OC(C)=O)C(=O)OCC [A.5, Acetyltriethylcitrate]", "t"]
]}

As a next step, examine the compound that follows.
Does the reported protease activity in the course of time of storage at 37° C. of the following compound sit strictly below 80%? CCOC(=O)C(=O)OCC [B.3, diethyloxalate, reference compound] t

Ref: patent US20210395650A1
